target: Plasminogen (Homo sapiens, UniProt P00747)
Sequence (P00747 97-580 limits assumed): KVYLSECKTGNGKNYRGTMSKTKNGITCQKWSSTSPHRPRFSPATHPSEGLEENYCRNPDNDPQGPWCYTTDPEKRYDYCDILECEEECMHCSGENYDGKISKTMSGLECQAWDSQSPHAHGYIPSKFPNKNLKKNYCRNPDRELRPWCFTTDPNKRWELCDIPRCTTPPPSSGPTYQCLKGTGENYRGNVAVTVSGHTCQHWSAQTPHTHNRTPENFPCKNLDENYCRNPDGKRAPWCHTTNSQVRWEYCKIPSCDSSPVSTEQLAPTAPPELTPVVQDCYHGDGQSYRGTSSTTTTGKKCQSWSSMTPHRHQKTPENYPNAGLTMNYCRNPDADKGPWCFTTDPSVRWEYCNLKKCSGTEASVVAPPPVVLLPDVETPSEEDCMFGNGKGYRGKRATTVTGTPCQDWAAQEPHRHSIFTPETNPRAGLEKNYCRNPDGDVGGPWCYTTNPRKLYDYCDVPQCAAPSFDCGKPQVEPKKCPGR
Sequence (P00747 581-810 limits assumed): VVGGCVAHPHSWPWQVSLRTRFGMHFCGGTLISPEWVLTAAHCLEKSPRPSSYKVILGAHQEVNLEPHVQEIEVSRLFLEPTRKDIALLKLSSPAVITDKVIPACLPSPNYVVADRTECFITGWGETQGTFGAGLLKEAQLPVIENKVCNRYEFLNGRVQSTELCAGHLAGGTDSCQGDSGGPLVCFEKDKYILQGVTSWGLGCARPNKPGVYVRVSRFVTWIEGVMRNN

Structure	Ki
CC(C)(C)[C@H](NC(=O)[C@H](CCCNC(=N)N)NC(=O)Cc1ccc(CNC(=N)N)cc1)C(=O)N[C@@H](CCCNC(=N)N)C(=O)NCc1ccc(C(=N)N)cc1	> 3 µM

###

Entries and their CC50
assay: Cytotoxicity against african green monkey Vero 76 cells by Cell Titer Glo assay; type: cell-based; settings: chlorocebus sabaeus
Value kind: CC50

Structure	Endpoint result
CC(C)(C)[C@H](NC(=O)[C@H](CCONC(=N)N)NC(=O)Cc1ccc(CNC(=N)N)cc1)C(=O)N[C@@H](CCONC(=N)N)C(=O)NCc1ccc(C(=N)N)cc1	> 50 µM
CC(C)(C)[C@H](NC(=O)[C@H](CCCNC(=N)N)NC(=O)Cc1ccc(CNC(=N)N)cc1)C(=O)N[C@@H](CCCNC(=N)N)C(=O)NCc1ccc(C(=N)N)cc1	> 50 µM
